Numbers sourced from ChEMBL document CHEMBL5543149.

- PROTOCOL_SUMMARY: Tmax in Sprague-Dawley rat at 2 mg/kg, iv measured upto 24 hrs by LC-MS/MS analysis
- Assay type: ADME, organism-based
- MEASUREMENT_CONDITIONS: in vivo
PARAMETER_MEASURED: Tmax

INSERT INTO assay_data (item_smiles, value_observed) VALUES
  ('Cn1c(Cn2ccc(C(F)(F)F)c(Oc3cc(Cl)cc(-c4ccc(Br)cc4)c3)c2=O)n[nH]c1=O', '3 min');

====

- PROTOCOL_SUMMARY: Solubility of compound at pH 2 incubated for 2 hrs by HPLC analysis
- Type: physicochemical
- MEASUREMENT_CONDITIONS: buffer
PARAMETER_MEASURED: solubility at 2 h (µg/mL)

INSERT INTO assay_data (item_smiles, parameter_measured, u, value_observed) VALUES
  ('Cn1c(Cn2ccc(C(F)(F)F)c(Oc3cc(Cl)cc(-c4ccc(Br)cc4)c3)c2=O)n[nH]c1=O', 'solubility at 2 h', 'µg/mL', 107);

====

- System: Human immunodeficiency virus 1
- PROTOCOL_SUMMARY: Antiviral activity against wild type HIV-1 infected in mouse harboring K103N mutant at 10 mg/kg, po measured for 24 hrs
- Type: functional, organism-based
- MEASUREMENT_CONDITIONS: Human immunodeficiency virus 1, 24 h
PARAMETER_MEASURED: EC50 (nM)

INSERT INTO results (item_smiles, parameter_measured, value_observed) VALUES
  ('Cn1c(Cn2ccc(C(F)(F)F)c(Oc3cc(Cl)cc(-c4ccc(Br)cc4)c3)c2=O)n[nH]c1=O', 'EC50', 13);

====

- PROTOCOL_SUMMARY: Water solubility of compound at pH 7 incubated for 2 hrs by HPLC analysis
- Format: physicochemical
PARAMETER_MEASURED: solubility at 2 h (µg/mL)

INSERT INTO measurements (item_smiles, value_observed) VALUES
  ('Cn1c(Cn2ccc(C(F)(F)F)c(Oc3cc(Cl)cc(-c4ccc(Br)cc4)c3)c2=O)n[nH]c1=O', 45.7);

====

- System: Human immunodeficiency virus 1
- PROTOCOL_SUMMARY: Antiviral activity against wild type HIV-1 infected in mouse harboring RES056 mutant at 10 mg/kg, po measured for 24 hrs
- Assay type: functional, organism-based
- MEASUREMENT_CONDITIONS: Human immunodeficiency virus 1, 24 h
PARAMETER_MEASURED: EC50 (µM)

INSERT INTO measurements (item_smiles, u, value_observed) VALUES
  ('Cn1c(Cn2ccc(C(F)(F)F)c(Oc3cc(Cl)cc(-c4ccc(Br)cc4)c3)c2=O)n[nH]c1=O', 'µM', 0.056);

====

Attribute: EC50
- Test system: Human immunodeficiency virus 1
- PROTOCOL_SUMMARY: Antiviral activity against NNRTI-resistant HIV-1 harboring RES056 mutant infected in human MT4 cells assessed as protection against virus-induced cytopathic effect by MTT assay
- Type: functional, organism-based
- MEASUREMENT_CONDITIONS: Human immunodeficiency virus 1, MT4
PARAMETER_MEASURED: EC50 (nM)

INSERT INTO assay_data (item_smiles, u, value_observed) VALUES
  ('Cn1c(Cn2ccc(C(F)(F)F)c(Oc3cc(Cl)cc(-c4cncnc4)c3)c2=O)n[nH]c1=O', 'nM', 91),
  ('Cn1c(Cn2ccc(C(F)(F)F)c(Oc3cc(Cl)cc(-c4ccc(Br)cc4)c3)c2=O)n[nH]c1=O', 'nM', 59),
  ('Cc1ccc(-c2cc(Cl)cc(Oc3c(C(F)(F)F)ccn(Cc4n[nH]c(=O)n4C)c3=O)c2)cc1', 'nM', 344),
  ('Cn1c(Cn2ccc(C(F)(F)F)c(Oc3cc(Cl)cc(-c4ccc(Cl)cc4)c3)c2=O)n[nH]c1=O', 'nM', 401);
